- systemName: human DLK (Homo sapiens)
- Sequence (Q12852 1-859): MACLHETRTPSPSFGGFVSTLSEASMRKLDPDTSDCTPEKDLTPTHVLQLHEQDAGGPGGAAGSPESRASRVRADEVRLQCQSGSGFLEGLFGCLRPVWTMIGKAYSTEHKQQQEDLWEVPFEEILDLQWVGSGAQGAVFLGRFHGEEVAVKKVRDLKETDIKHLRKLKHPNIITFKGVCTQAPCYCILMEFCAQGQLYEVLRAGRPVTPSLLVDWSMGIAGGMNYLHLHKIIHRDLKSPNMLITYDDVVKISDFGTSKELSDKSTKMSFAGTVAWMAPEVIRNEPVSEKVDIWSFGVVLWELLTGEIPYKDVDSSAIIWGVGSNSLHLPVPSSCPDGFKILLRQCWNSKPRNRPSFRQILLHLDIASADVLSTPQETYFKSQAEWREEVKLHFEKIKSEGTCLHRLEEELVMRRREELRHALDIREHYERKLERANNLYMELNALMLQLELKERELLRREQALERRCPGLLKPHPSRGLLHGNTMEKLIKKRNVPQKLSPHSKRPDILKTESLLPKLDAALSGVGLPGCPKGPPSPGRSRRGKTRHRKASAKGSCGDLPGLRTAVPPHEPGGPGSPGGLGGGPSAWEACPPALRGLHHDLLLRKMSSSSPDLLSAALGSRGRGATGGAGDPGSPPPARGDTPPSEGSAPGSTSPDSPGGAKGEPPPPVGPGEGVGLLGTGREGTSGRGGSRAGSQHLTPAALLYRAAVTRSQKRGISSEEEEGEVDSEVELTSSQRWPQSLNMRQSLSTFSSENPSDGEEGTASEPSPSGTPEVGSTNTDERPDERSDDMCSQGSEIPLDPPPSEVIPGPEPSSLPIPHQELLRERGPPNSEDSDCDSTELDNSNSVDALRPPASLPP
- protocolSummary: DLK Kd Determinations (KINOMEscan KdELECT, DiscoveRx)
- statedConditions: fusion protein of full length human DLK (amino acids 1-859) and NFkB DNA binding domain; qPCR readout; duplicate
propertyLabel: pKd
Would you please state pKd, meaning minus log10 of the concentration in mol/L, as a bare number?

Challenge: Give its pKd value. Item: Nc1ncc(-c2cn([C@H]3[C@@H]4CN(C5CCOCC5)C[C@@H]43)c(CC(F)(F)F)n2)cc1C(F)(F)F [Example 119]
Response given: 7.15

Challenge: Give its pKd value. Item: CC(C)c1nc(-c2cnc(N)c(OC(F)F)c2)cn1[C@H]1[C@@H]2CC(N3CCN(C)CC3)C[C@@H]21 (single isomer, unassigned) [Example 145a]
Response given: 7.41

Challenge: Give its pKd value. Item: CCC(CC)c1nc(-c2cnc(N)c(C(F)(F)F)c2)cn1[C@H]1[C@@H]2CN(CCF)C[C@@H]21 [Example 125]
Response given: 6.92

* * *

- systemName: human DLK (Homo sapiens)
- Sequence (Q12852 1-859): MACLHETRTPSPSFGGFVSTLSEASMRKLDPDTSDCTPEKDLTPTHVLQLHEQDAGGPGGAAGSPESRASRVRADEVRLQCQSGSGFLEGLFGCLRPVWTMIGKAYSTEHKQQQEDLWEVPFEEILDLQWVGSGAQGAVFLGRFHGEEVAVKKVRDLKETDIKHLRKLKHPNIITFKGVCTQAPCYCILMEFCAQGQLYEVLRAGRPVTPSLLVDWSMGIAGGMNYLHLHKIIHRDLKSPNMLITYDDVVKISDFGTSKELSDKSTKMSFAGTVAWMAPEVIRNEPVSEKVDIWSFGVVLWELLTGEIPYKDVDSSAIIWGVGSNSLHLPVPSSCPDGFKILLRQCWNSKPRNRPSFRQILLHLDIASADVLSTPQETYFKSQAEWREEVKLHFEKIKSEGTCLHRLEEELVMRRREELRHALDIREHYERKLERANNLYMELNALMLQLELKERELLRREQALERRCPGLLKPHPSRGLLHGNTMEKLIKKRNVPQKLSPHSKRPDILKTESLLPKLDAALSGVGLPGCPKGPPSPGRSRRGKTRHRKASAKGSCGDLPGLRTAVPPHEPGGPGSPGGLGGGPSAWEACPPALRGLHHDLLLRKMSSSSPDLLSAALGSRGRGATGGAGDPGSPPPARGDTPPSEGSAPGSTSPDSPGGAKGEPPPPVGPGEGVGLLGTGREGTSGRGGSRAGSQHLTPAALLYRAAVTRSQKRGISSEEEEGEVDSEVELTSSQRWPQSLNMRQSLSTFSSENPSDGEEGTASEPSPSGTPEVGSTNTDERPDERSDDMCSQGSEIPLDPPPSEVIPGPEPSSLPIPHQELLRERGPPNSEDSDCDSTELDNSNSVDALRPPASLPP
- protocolSummary: Phospho-cJun Cellular Assay
- statedConditions: HEK293 cells stably transfected with Dox-inducible human DLK; p-cJun (Ser63); 5 h compound incubation
Please respond with reported IC50 for every item in the list.
Don't forget the unit after the number, please.

Challenge: Give its IC50 value. Item: CC(C)c1nc(-c2cnc(N)c(C(F)(F)F)c2)cn1[C@H]1[C@@H]2CC(N3CCN(C)CC3)C[C@@H]21 (stereo partly drawn) [Example 132]
Response given: 909 nM

Challenge: Give its IC50 value. Item: CC(C)c1nc(-c2cnc(N)c(C(F)(F)F)c2)cn1[C@H]1C[C@H](N2CCOCC2)C1 [Example 42]
Response given: 2230 nM

Challenge: Give its IC50 value. Item: CN1CCN(C2C[C@@H]3[C@H](C2)[C@H]3n2cc(-c3cnc(N)c(OC(F)(F)F)c3)nc2CC2CC2)CC1 (single isomer, unassigned) [Example 151a]
Response given: 994 nM

* * *

- systemName: UniProt Q12852
- protocolSummary: DLK Kd Determinations (KINOMEscan KdELECT, DiscoveRx)
- Design: full length of human DLK (amino acids 1-859); host or cells: transiently transfected HEK293 cells; unpurified extract
- statedConditions: fusion protein of full length human DLK (amino acids 1-859) and NFkB DNA binding domain; qPCR readout; duplicate
Please respond with reported Kd for every item in the list.
Answer format: numeric, µM implied, no suffix.

Challenge: Give its Kd value. Item: CC(C)c1nc(-c2cnc(N)c(C(F)(F)F)c2)cn1Cc1cccnc1
Response given: 0.94

Challenge: Give its Kd value. Item: CN1CCN(C2C[C@@H]3[C@H](C2)[C@H]3n2cc(-c3cnc(N)c(OC(F)(F)F)c3)nc2CC2CC2)CC1 (single isomer, unassigned) [Example 151a]
Response given: 0.026

Challenge: Give its Kd value. Item: Nc1ncc(-c2cn([C@H]3[C@@H]4CN(CC(F)F)C[C@@H]43)c(C3CC3)n2)cc1OC(F)F
Response given: 0.092

Challenge: Give its Kd value. Item: CC(C)c1nc(-c2cnc(N)c(C(F)(F)F)c2)cn1Cc1ccccn1
Response given: 1.5

Challenge: Give its Kd value. Item: Nc1ncc(-c2cn(CC3CC3)c([C@H]3[C@@H]4CN(C5COC5)C[C@@H]43)n2)cc1C(F)(F)F
Response given: 0.14

Challenge: Give its Kd value. Item: CC(C)c1nc(-c2cnc(N)c(C(F)(F)F)c2)cn1C1CCCC1
Response given: 0.22

Challenge: Give its Kd value. Item: COCCN1C[C@@H]2[C@H](C1)[C@H]2n1cc(-c2cnc(N)c(C(F)(F)F)c2)nc1CC1CC1
Response given: 0.064

* * *

- systemName: human DLK (Homo sapiens)
- protocolSummary: DLK Kd Determinations (KINOMEscan KdELECT, DiscoveRx)
- statedConditions: fusion protein of full length human DLK (amino acids 1-859) and NFkB DNA binding domain; qPCR readout; duplicate
Please respond with reported Kd for every item in the list.
Don't forget the unit after the number, please.

Challenge: Give its Kd value. Item: CC1COCCN1C1C[C@@H]2[C@H](C1)[C@H]2n1cc(-c2cnc(N)c(OC(F)(F)F)c2)nc1C1CC1 (stereo partly shown) [Example 148]
Response given: 22 nM

Challenge: Give its Kd value. Item: CC(C)c1nc(-c2cnc(N)c(C(F)(F)F)c2)cn1[C@H]1[C@@H]2CN(C3COC3)C[C@@H]21 [Example 12]
Response given: 47 nM

Challenge: Give its Kd value. Item: Nc1ncc(-c2cn3c(n2)COCC3)cc1C(F)(F)F [Example 10]
Response given: 840 nM

Challenge: Give its Kd value. Item: Nc1ncc(-c2cn([C@H]3[C@@H]4CC(N5CCN(CCF)CC5)C[C@@H]43)c(C3CC3)n2)cc1OC(F)(F)F (single isomer, unassigned) [Example 154a]
Response given: 28 nM

Challenge: Give its Kd value. Item: Nc1ncc(-c2cn([C@H]3[C@@H]4CN(C5COC5)C[C@@H]43)c(C3CC3)n2)cc1C(F)(F)F [Example 73]
Response given: 56 nM

Challenge: Give its Kd value. Item: CC(C)c1nc(-c2cnc(N)c(C(F)(F)F)c2)cn1C1CCN(C2COC2)C1 (stereo not shown) [Example 36]
Response given: 350 nM

Challenge: Give its Kd value. Item: CC(C)c1nc(-c2cnc(N)c(C(F)(F)F)c2)cn1[C@H]1[C@@H]2CN(CCF)C[C@@H]21 [Example 16]
Response given: 68 nM
